molecular target: Kras and SOS1 (biotin-tagged human Kras loaded with GDP, His-tagged human SOS1) (Homo sapiens, UniProt P01116, G12D); construct: made in house; host or cells: E. coli (stated for Kras only); assay: Protein-protein interaction inhibition between Kras and SOS1 (KrasGl2D-SOS PPI) using AlphaScreen; format: binding; conditions: AlphaScreen; biotin-tagged human Kras loaded with GDP, His-tagged human SOS1; read-out: KRAS G12D-SOS PPI IC50
Sequence (P01116 1-188 isoform P01116-2 G12D): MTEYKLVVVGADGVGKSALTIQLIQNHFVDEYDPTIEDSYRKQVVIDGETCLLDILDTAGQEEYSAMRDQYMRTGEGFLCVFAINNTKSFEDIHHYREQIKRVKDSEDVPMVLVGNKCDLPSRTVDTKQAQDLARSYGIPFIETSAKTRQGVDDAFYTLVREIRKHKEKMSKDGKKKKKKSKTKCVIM
Starred links: 1 amine or outer side, 2 acyl side, 3 side chain; linkers in the order of their positions; H or OH if unused. Positions of bridges follow the written chain, without caps; N, C: chain ends. Non-standard residues stand in square brackets, D forms with d. Residues, ends and D or L forms follow the SMILES beside them. *: point of attachment. hPhe(3-Cl-4-CF3) = N[C@@H](CCc1ccc(C(F)(F)F)c(Cl)c1)C(=O)O; NMeDab(N,N-(CH2CF2CH2)) = CN[C@@H](CCN1CC(F)(F)C1)C(=O)O; Phe(2,6-F2) = N[C@@H](Cc1c(F)cccc1F)C(=O)O; hPhe(4-Cl) = N[C@@H](CCc1ccc(Cl)cc1)C(=O)O; NMedβ3hAla = C[C@H](CC(=O)[*:2])N(C)[*:1]; NMeAla(cPent) = CN[C@@H](CC1CCCC1)C(=O)O; NMeGly(cPent) = CN[C@H](C(=O)O)C1CCCC1; NMeGly(cBu) = CN[C@H](C(=O)O)C1CCC1; NMeY = CN[C@@H](Cc1ccc(O)cc1)C(=O)O; NMeCha = CN[C@@H](CC1CCCCC1)C(=O)O; NMeChg = CN[C@H](C(=O)O)C1CCCCC1; NMeT = CN[C@H](C(=O)O)[C@@H](C)O; NMeD = CN[C@@H](CC(=O)O)C(=O)O; NMeL = CN[C@@H](CC(C)C)C(=O)O; NMeNle = CCCC[C@H](NC)C(=O)O; NMeV = CN[C@H](C(=O)O)C(C)C; d(β3hA) = C[C@@H](N)CC(=O)O; NMeAbu = CC[C@H](NC)C(=O)O; NMeS = CN[C@@H](CO)C(=O)O; Morpholide = C1CN(*)CCO1; NMeA = CN[C@@H](C)C(=O)O; NMeAib = CNC(C)(C)C(=O)O; Nle = CCCC[C@H](N)C(=O)O; Piperidide = C1CCN(*)CC1; Ac5c = NC1(C(=O)O)CCCC1; Aze = O=C(O)[C@@H]1CCN1; Sar = CNCC(=O)O; Propyl = CCC*
readoutKind: IC50

CC[C@H](C)[C@@H]1NC(=O)[C@H](CC(C)C)N(C)C(=O)C[C@@H](C(=O)N(C)C)N(C)C(=O)[C@H](C2CCCC2)N(C)C(=O)[C@H](COC)NC(=O)[C@H](CCN2CC(F)(F)C2)N(C)C(=O)[C@H](CCc2ccc(C(F)(F)F)c(Cl)c2)NC(=O)CN(C)C(=O)[C@H](CC2CCCCC2)N(C)C(=O)[C@@H]2CCN2C(=O)[C@H](C)N(C)C1=O [Compound 130] ([NMeL]I[NMeA][Aze][NMeCha][Sar][hPhe(3-Cl-4-CF3)][NMeDab(N,N-(CH2CF2CH2))]S(Me)[NMeGly(cPent)][NMeD]-NMe2; lactam N-11); 10 nM
CCCC[C@@H]1NC(=O)[C@H](Cc2c(F)cccc2F)NC(=O)CN(C)C(=O)[C@H](Cc2ccc(OC)cc2)N(C)C(=O)[C@@H]2CCN2C(=O)[C@H](C)N(C)C(=O)[C@H]([C@@H](C)CC)NC(=O)[C@H](CC)N(C)C(=O)C[C@@H](C(=O)N2CCCCC2)N(C)C(=O)[C@H](CC(C)C)NC(=O)C(C)(C)N(C)C1=O [Compound 1187] ([NMeAbu]I[NMeA][Aze][NMeY](Me)[Sar][Phe(2,6-F2)][Nle][NMeAib]L[NMeD]-Piperidide; lactam N-11); 99 nM
CC[C@H](C)[C@@H]1NC(=O)[C@H](CC(C)C)N(C)C(=O)C[C@@H](C)NC(=O)[C@H](C(C)C)N(C)C(=O)C2(CCCC2)NC(=O)[C@@H]2CCCN2C(=O)[C@H](CCc2ccc(C(F)(F)F)c(Cl)c2)NC(=O)CN(C)C(=O)[C@H](CC2CCCCC2)N(C)C(=O)[C@@H]2CCN2C(=O)[C@H](CC2CCCC2)N(C)C1=O [Compound 1618] (cyclo([Ac5c][NMeV][d(β3hA)][NMeL]I[NMeAla(cPent)][Aze][NMeCha][Sar][hPhe(3-Cl-4-CF3)]P)); 290 nM

Request: What value of measured IC50 is listed for CC[C@H](C)[C@@H]1NC(=O)[C@H](CC(C)C)N(C)C(=O)C[C@@H](C(=O)N2CCCCC2)N(C)C(=O)[C@H](C(C)C)N(C)C(=O)C2(CCCC2)NC(=O)[C@@H]2CCCN2C(=O)[C@H](CCc2ccc(Cl)cc2)NC(=O)CN(C)C(=O)[C@H](CC2CCCCC2)N(C)C(=O)[C@@H]2CCCN2C(=O)CN(C)C1=O [Compound 953] ([NMeL]I[Sar]P[NMeCha][Sar][hPhe(4-Cl)]P[Ac5c][NMeV][NMeD]-Piperidide; lactam N-11) ?
Response: 180 nM

Request: What value of measured IC50 is listed for CC[C@H](C)[C@@H]1NC(=O)[C@H](C)N(C)C(=O)C[C@@H](C)N(C)C(=O)[C@H](C2CCCCC2)N(C)C(=O)C2(CCCC2)NC(=O)[C@@H]2CCCN2C(=O)[C@H](CCc2ccc(C(F)(F)F)c(Cl)c2)NC(=O)CN(C)C(=O)[C@H](CC2CCCCC2)N(C)C(=O)CN(C)C(=O)CN(C)C1=O [Compound 1808] (cyclo([Ac5c][NMeChg][NMedβ3hAla][NMeA]I[Sar][Sar][NMeCha][Sar][hPhe(3-Cl-4-CF3)]P)) ?
Response: 47 nM

Request: What value of measured IC50 is listed for CC[C@H](C)[C@@H]1NC(=O)[C@H](CC2CCCCC2)N(C)C(=O)C[C@@H](C)NC(=O)[C@H](C(C)C)N(C)C(=O)C2(CCCC2)NC(=O)[C@@H]2CCCN2C(=O)[C@H](CCc2ccc(C(F)(F)F)c(Cl)c2)NC(=O)CN(C)C(=O)[C@H](CC2CCCCC2)N(C)C(=O)CN(C)C(=O)CN(C)C1=O [Compound 285] (cyclo([Ac5c][NMeV][d(β3hA)][NMeCha]I[Sar][Sar][NMeCha][Sar][hPhe(3-Cl-4-CF3)]P)) ?
Response: 52 nM

Request: What value of measured IC50 is listed for CCCC[C@H]1C(=O)N(C)[C@H](C(=O)N2CCCCC2)CC(=O)N(C)[C@@H](CC(C)C)C(=O)N[C@@H]([C@@H](C)CC)C(=O)N(C)CC(=O)N(C)CC(=O)N(C)[C@@H](CC2CCCCC2)C(=O)N(C)CC(=O)N[C@@H](CCc2ccc(C(F)(F)F)c(Cl)c2)C(=O)N2CCC[C@H]2C(=O)NC2(CCCC2)C(=O)N1C [Compound 1815] ([NMeL]I[Sar][Sar][NMeCha][Sar][hPhe(3-Cl-4-CF3)]P[Ac5c][NMeNle][NMeD]-Piperidide; lactam N-11) ?
Response: 2.5 nM

Request: What value of measured IC50 is listed for CC[C@H](C)[C@@H]1NC(=O)[C@H]([C@@H](C)OC)N(C)C(=O)C[C@@H](C(=O)N2CCCCC2)N(C)C(=O)[C@H](C2CCCCC2)N(C)C(=O)C2(CCCC2)NC(=O)[C@@H]2CCCN2C(=O)[C@H](CCc2ccc(C(F)(F)F)c(Cl)c2)NC(=O)CN(C)C(=O)[C@H](CC2CCCCC2)N(C)C(=O)CN(C)C(=O)CN(C)C1=O [Compound 820] ([NMeT](Me)I[Sar][Sar][NMeCha][Sar][hPhe(3-Cl-4-CF3)]P[Ac5c][NMeChg][NMeD]-Piperidide; lactam N-11) ?
Response: 0.73 nM

Request: What value of measured IC50 is listed for CCCOC[C@H]1C(=O)N(C)CC(=O)N[C@@H](CCc2ccc(C(F)(F)F)c(Cl)c2)C(=O)N2CCC[C@H]2C(=O)NC2(CCCC2)C(=O)N(C)[C@@H](C2CCCCC2)C(=O)N(C)[C@H](C(=O)N2CCOCC2)CC(=O)N(C)[C@@H](C2CCC2)C(=O)N[C@@H]([C@@H](C)CC)C(=O)N(C)CC(=O)N(C)CC(=O)N1C [Compound 853] ([NMeGly(cBu)]I[Sar][Sar][NMeS](Propyl)[Sar][hPhe(3-Cl-4-CF3)]P[Ac5c][NMeChg][NMeD]-Morpholide; lactam N-11) ?
Response: 0.62 nM

###

target: Kras and SOS1 (biotin-tagged human Kras loaded with GDP, His-tagged human SOS1) (Homo sapiens, UniProt P01116, G12D); construct: made in house; host or cells: E. coli (stated for Kras only); assay: Protein-protein interaction inhibition between Kras and SOS1 (KrasGl2D-SOS PPI) using AlphaScreen; type: binding; details: AlphaScreen; biotin-tagged human Kras loaded with GDP, His-tagged human SOS1; read-out: KRAS G12D-SOS PPI IC50
Positions of bridges follow the written chain, without caps; N, C: chain ends. Non-standard residues stand in square brackets, D forms with d. Residues, ends and D or L forms follow the SMILES beside them. *: point of attachment. hPhe(3-F,4-CF3) = N[C@@H](CCc1ccc(C(F)(F)F)c(F)c1)C(=O)O; hPhe(3,4-Cl2) = N[C@@H](CCc1ccc(Cl)c(Cl)c1)C(=O)O; NMePhe(4-Cl) = CN[C@@H](Cc1ccc(Cl)cc1)C(=O)O; NMeCha = CN[C@@H](CC1CCCCC1)C(=O)O; NMeChg = CN[C@H](C(=O)O)C1CCCCC1; NMeD = CN[C@@H](CC(=O)O)C(=O)O; NMeL = CN[C@@H](CC(C)C)C(=O)O; NMeV = CN[C@H](C(=O)O)C(C)C; d(β3hA) = C[C@@H](N)CC(=O)O; NMeA = CN[C@@H](C)C(=O)O; Piperidide = C1CCN(*)CC1; Ac5c = NC1(C(=O)O)CCCC1; Sar = CNCC(=O)O
readoutKind: pIC50
// returns pIC50 (minus log10 of molar concentration), number only

CC[C@H](C)[C@@H]1NC(=O)[C@H](C(C)C)N(C)C(=O)C[C@@H](C)NC(=O)[C@H](CC(C)C)N(C)C(=O)C2(CCCC2)NC(=O)[C@H](CC(C)C)N(C)C(=O)[C@H](CCc2ccc(C(F)(F)F)c(F)c2)NC(=O)CN(C)C(=O)[C@H](Cc2ccc(Cl)cc2)N(C)C(=O)CN(C)C(=O)CN(C)C1=O [Compound 851] (cyclo([Ac5c][NMeL][d(β3hA)][NMeV]I[Sar][Sar][NMePhe(4-Cl)][Sar][hPhe(3-F,4-CF3)][NMeL])); 7.57

Now consider the entry below.
Request: What value of measured pIC50 is listed for CC[C@H](C)[C@@H]1NC(=O)[C@H](C)N(C)C(=O)C[C@@H](C(=O)N2CCCCC2)N(C)C(=O)[C@H](C2CCCCC2)N(C)C(=O)C2(CCCC2)NC(=O)[C@@H]2CCCN2C(=O)[C@H](CCc2ccc(Cl)c(Cl)c2)NC(=O)CN(C)C(=O)[C@H](CC2CCCCC2)N(C)C(=O)CN(C)C(=O)CN(C)C1=O [Compound 825] ([NMeA]I[Sar][Sar][NMeCha][Sar][hPhe(3,4-Cl2)]P[Ac5c][NMeChg][NMeD]-Piperidide; lactam N-11) ?
Response: 9.46
